subject of test: Ras-related C3 botulinum toxin substrate 1 (Homo sapiens)
assay procedure: activated Rac1 mutant nucleotide-binding inhibitors – biochemical, multiplex, GST-Rac1 beads, Bodipy-FL-GTP, flow cytometry, dose response (AID 1339)
pEC50: −log10 of the molar value.
// values below are reported pEC50

{"compound": "COc1cccc(NC(=O)COC(=O)/C=C/c2ccc(Cl)cc2Cl)c1", "pEC50": 4.88}
{"compound": "Cc1ccc(SC(CC(=O)c2ccc(C(C)(C)C)cc2)C(=O)O)cc1 (centres undefined)", "pEC50": 4.91}
{"compound": "Cc1cc(NC(=O)CSc2nc(-c3ccccc3)c(C#N)c(=O)[nH]2)no1", "pEC50": 4.89}
{"compound": "COc1ccccc1OCc1cccc(C(=O)O)c1", "pEC50": 5.02}
